Reported koff values for a set of binders
# studyTarget: T1, Monomeric human CD48-mmH (human)
# T1 construct: also called soluble CD48 expressed with a myc-myc-hexa-histidine C-terminal tag [mmH]
# T1 chain: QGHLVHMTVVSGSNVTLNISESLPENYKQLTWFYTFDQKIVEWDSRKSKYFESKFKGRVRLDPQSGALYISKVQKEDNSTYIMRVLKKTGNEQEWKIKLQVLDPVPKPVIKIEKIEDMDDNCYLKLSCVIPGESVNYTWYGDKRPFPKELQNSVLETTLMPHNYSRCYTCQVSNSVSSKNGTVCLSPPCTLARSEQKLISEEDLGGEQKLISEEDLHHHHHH
# protocolDetails: SPR (Biacore T100), 25 C, antibody captured by anti-Fc, monomeric CD48-mmH in solution

# binder, koff / s⁻¹
records = [
    ("H2M1710N (antibody, mouse IgG2, V domains shown, Human variable domains, mouse IgG2 Fc (prefix H2M)) VH: QVQLVQSGADMKKPGASVRVSCKASGYTFTDYFIHWVRQAPGQGPEWMGWINPDSGATNYAQQFQGRVTMTRDTSISATYMEMSRLRSDDTAVFYCARDKDGSGWYLDDWGQGTLVTVSS VL: EIVLTQSPATLSLSPGERATLSCRASQSVNIYLAWYQQKPGQAPRLLIYDASNRASGIPARFSGSGSGTDFTLTISSLEPEDFAVYYCQQRSNWPPSITFGQGTRLEIK", 0.00146),
    ("H2M1707N (antibody, mouse IgG2, V domains shown) VH: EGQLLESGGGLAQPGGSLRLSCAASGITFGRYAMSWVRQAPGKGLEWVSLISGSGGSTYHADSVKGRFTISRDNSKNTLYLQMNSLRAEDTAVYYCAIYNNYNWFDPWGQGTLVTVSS VL: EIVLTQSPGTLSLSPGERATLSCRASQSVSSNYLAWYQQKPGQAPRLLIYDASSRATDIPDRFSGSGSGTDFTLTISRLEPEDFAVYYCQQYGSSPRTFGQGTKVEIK", 0.000642),
    ("H4H1778P (antibody, human IgG4, V domains shown, Human IgG4 Fc (prefix H4H)) VH: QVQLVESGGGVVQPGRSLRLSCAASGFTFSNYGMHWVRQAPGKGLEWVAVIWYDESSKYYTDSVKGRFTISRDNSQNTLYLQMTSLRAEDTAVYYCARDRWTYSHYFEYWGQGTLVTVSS VL: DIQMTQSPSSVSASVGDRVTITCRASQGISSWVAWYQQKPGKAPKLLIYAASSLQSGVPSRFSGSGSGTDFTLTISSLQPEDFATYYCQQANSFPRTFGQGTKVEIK", "4.69e-05"),
]
